All figures here come from the RNAGym collection of RNA variant scans (doi:10.1126/science.aae0568).

B1: tRNA (parent)
chain: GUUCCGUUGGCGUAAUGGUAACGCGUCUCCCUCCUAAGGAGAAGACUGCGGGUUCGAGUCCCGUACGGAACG

- Variants of: B1
- assay procedure: yeast fitness relative to wild type (ratio to wild type); higher = fitter; tRNA-Arg(CCU), competitive growth, 37 C, YPD
This sample holds only a part of the variants without activity.
quantity kind: yeast fitness
Lab note: record just the number, no unit beside it.

mutation list: C4A C34A
yeast fitness: 0.817
//
mutation list: C27U G38C
yeast fitness: 0.626
//
mutation list: U3C G9A A57C
yeast fitness: 0.584
//
mutation list: G6A U13G C27U C61G
yeast fitness: 0.667
//
mutation list: U19G A37G C66U
yeast fitness: 0.639

# lookup: yeast fitness of U13A C27G A43C A45U U64C
0.582

# lookup: yeast fitness of C27U A45C G48A A57U G68C
0.562

# lookup: yeast fitness of U7A A20U C55A C66U
0.894

# lookup: yeast fitness of C5U U28C C29G C61U
0.563

# lookup: yeast fitness of C22U U47A G63A
0.503

# lookup: yeast fitness of U16C A65G A70C
0.786

# lookup: yeast fitness of C29G C49A A70C
0.538

# lookup: yeast fitness of G9C G67C
0.746

# lookup: yeast fitness of C22U C34G A36U A65C
0.573

# lookup: yeast fitness of C24U A42G C49G C61G
0.627

# lookup: yeast fitness of G23C C61U A70U
0.6

# lookup: yeast fitness of U2G C61U A70G
0.795

# lookup: yeast fitness of C31U C60U U64C
0.695

# lookup: yeast fitness of G44A C55U A69C
0.585

# lookup: yeast fitness of U16C C22U A70U
0.572

# lookup: yeast fitness of A14U U59G A65U
0.547

# lookup: yeast fitness of U26C U28A
0.727

# lookup: yeast fitness of G9C G23A A36C
0.777
